Molecular target: T1, KDM5B-PHD1-V311A (Homo sapiens)
T1 chain: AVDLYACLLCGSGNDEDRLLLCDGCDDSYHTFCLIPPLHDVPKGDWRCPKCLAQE
Assay: ITC
READOUT_TYPE: Kd

>  <BINDER>
ARTKQTARKS (histone H3 N-terminal tail, residues 1-10; also called H3K4me0; H3K4me0 peptide; source: synthetic peptide, bought: GL Biochem Ltd. (Shanghai, China)) [unmodified H3K4 peptide (residues 1-10)]

>  <RESULT>
8.2 µM

$$$$
